EXPERIMENT DESCRIPTION: Plasma pharmacokinetics after multiple doses (cycle 2, steady state), LC-MS/MS
Type: in vivo, human
CONDITIONS USED: human, plasma, oral, 1.25 mg, multiple dose, steady state; Schedule A (5 days on, 2 days off), 1.25 mg, n = 4; read-out: AUC(0–T), GM (%CV)
MEASUREMENT KIND: AUC(0-t) (ng·h/mL)
Numbers only; they are read as ng·h/mL.

What does the data say about its AUC(0-t)? Entry: `Cc1nnn(C)c1-c1cnc2c3ccc(C(C)(C)O)cc3n([C@H](c3ccccc3)C3CCOCC3)c2c1` 4960

###

EXPERIMENT DESCRIPTION: Plasma pharmacokinetics after single dose (C1D1), LC-MS/MS
Assay type: in vivo, human
CONDITIONS USED: human, plasma, oral, 3 mg, cohort Schedule A, 3.0 mg, n = 10, read-out: AUC(0–T), GM (%CV)
MEASUREMENT KIND: AUC(0-t) (ng·h/mL)
Reply with just the number (in ng·h/mL).

Sample `Cc1nnn(C)c1-c1cnc2c3ccc(C(C)(C)O)cc3n([C@H](c3ccccc3)C3CCOCC3)c2c1` — what was its AUC(0-t)? 10500

###

EXPERIMENT DESCRIPTION: Plasma pharmacokinetics after multiple doses (cycle 2, steady state), LC-MS/MS
Assay type: in vivo, human
CONDITIONS USED: human, plasma, oral, 4.5 mg, multiple dose, steady state; Schedule C (7 days on, 14 days off), 4.5 mg, n = 5; read-out: Effective T1/2, mean (SD) (converted)
MEASUREMENT KIND: half-life (h)
Respond numerically; units are h and should not be typed.

Recorded half-life of `Cc1nnn(C)c1-c1cnc2c3ccc(C(C)(C)O)cc3n([C@H](c3ccccc3)C3CCOCC3)c2c1` , please. 27.6

###

EXPERIMENT DESCRIPTION: Plasma pharmacokinetics after single dose (C1D1), LC-MS/MS
Type: in vivo, human
CONDITIONS USED: human, plasma, oral, 3 mg, cohort Schedule B, n = 4
MEASUREMENT KIND: Cmax (ng/mL)
Answer format: numeric, ng/mL implied, no suffix.

Look at this compound and give its reported Cmax. `Cc1nnn(C)c1-c1cnc2c3ccc(C(C)(C)O)cc3n([C@H](c3ccccc3)C3CCOCC3)c2c1` 481

###

EXPERIMENT DESCRIPTION: Plasma pharmacokinetics after multiple doses (cycle 2, steady state), LC-MS/MS
Assay type: in vivo, human
CONDITIONS USED: human, plasma, oral, 3 mg, multiple dose, steady state; Schedule C (7 days on, 14 days off), n = 8
MEASUREMENT KIND: Cmax (ng/mL)
Numbers only here, please. The scale is ng/mL.

Recorded Cmax of Cc1nnn(C)c1-c1cnc2c3ccc(C(C)(C)O)cc3n([C@H](c3ccccc3)C3CCOCC3)c2c1 [BMS-986158] , please. 588

###

EXPERIMENT DESCRIPTION: Plasma pharmacokinetics after multiple doses (cycle 2, steady state), LC-MS/MS
Type: in vivo, human
CONDITIONS USED: human, plasma, oral, 3 mg, multiple dose, steady state; Schedule A (5 days on, 2 days off), n = 8
Method: At C1D1 in every dosing schedule cohort, a single dose was administered followed by 168 h (i.e., 7 days) of intensive PK sampling. Following cycle 1, the multiple-dose treatment schedules (described above) began in cycle 2. […] PK assessments were evaluated for BMS-986158 and its metabolite using plasma samples at regular intervals. Both the parent and metabolite samples were simultaneously analyzed using a validated liquid chromatography and tandem mass spectrometry assay. […]
MEASUREMENT KIND: Cmax

For the compound `Cc1nnn(C)c1-c1cnc2c3ccc(C(C)(C)O)cc3n([C@H](c3ccccc3)C3CCOCC3)c2c1` , what Cmax is on record? 624 ng/mL

###

EXPERIMENT DESCRIPTION: Plasma pharmacokinetics after multiple doses (cycle 2, steady state), LC-MS/MS
Format: in vivo, human
CONDITIONS USED: human, plasma, oral, 2 mg, multiple dose, steady state; Schedule A (5 days on, 2 days off), n = 7
MEASUREMENT KIND: Cmax (ng/mL)
Answer format: numeric, ng/mL implied, no suffix.

Could you share which Cmax value was measured for `Cc1nnn(C)c1-c1cnc2c3ccc(C(C)(C)O)cc3n([C@H](c3ccccc3)C3CCOCC3)c2c1` ? 442

###

EXPERIMENT DESCRIPTION: Plasma pharmacokinetics after multiple doses (cycle 2, steady state), LC-MS/MS
Format: in vivo, human
CONDITIONS USED: human, plasma, oral, 1.25 mg, multiple dose, steady state; Schedule A (5 days on, 2 days off), n = 4
MEASUREMENT KIND: Cmax
Value and unit, in that order.

Entry `Cc1nnn(C)c1-c1cnc2c3ccc(C(C)(C)O)cc3n([C@H](c3ccccc3)C3CCOCC3)c2c1` : reported Cmax = ? 284 ng/mL

###

EXPERIMENT DESCRIPTION: Plasma pharmacokinetics after multiple doses (cycle 2, steady state), LC-MS/MS
Assay type: in vivo, human
CONDITIONS USED: human, plasma, oral, 2 mg, multiple dose, steady state; Schedule C (7 days on, 14 days off), n = 5
MEASUREMENT KIND: Cmax (µg/mL)
Lab book: enter the figure in µg/mL, no units written.

Value lookup for Cmax; key = `Cc1nnn(C)c1-c1cnc2c3ccc(C(C)(C)O)cc3n([C@H](c3ccccc3)C3CCOCC3)c2c1` 0.52

###

EXPERIMENT DESCRIPTION: Plasma pharmacokinetics after multiple doses (cycle 2, steady state), LC-MS/MS
Type: in vivo, human
CONDITIONS USED: human, plasma, oral, 2 mg, multiple dose, steady state; Schedule B (14 days on, 7 days off), 2.0 mg, n = 1; read-out: Tmax, median (range)
MEASUREMENT KIND: Tmax
# number then unit; no other words

Can you look up the measured Tmax of Cc1nnn(C)c1-c1cnc2c3ccc(C(C)(C)O)cc3n([C@H](c3ccccc3)C3CCOCC3)c2c1 [BMS-986158] for me? 1 h

###

EXPERIMENT DESCRIPTION: Plasma pharmacokinetics after multiple doses (cycle 2, steady state), LC-MS/MS
Format: in vivo, human
CONDITIONS USED: human, plasma, oral, 3 mg, multiple dose, steady state; Schedule C (7 days on, 14 days off), 3.0 mg, n = 8; read-out: AUC(0–24), GM (%CV)
MEASUREMENT KIND: AUC(0-t) (ng·h/mL)
// units = ng·h/mL; emit number, no label

# get_value(readout='AUC(0-t)', item= `Cc1nnn(C)c1-c1cnc2c3ccc(C(C)(C)O)cc3n([C@H](c3ccccc3)C3CCOCC3)c2c1` ) 8640

###

EXPERIMENT DESCRIPTION: Plasma pharmacokinetics after single dose (C1D1), LC-MS/MS
Format: in vivo, human
CONDITIONS USED: human, plasma, oral, 2 mg, cohort Schedule A, 2.0 mg, n = 4, read-out: Effective T1/2, mean (SD) (converted)
MEASUREMENT KIND: half-life (h)
Numbers only; they are read as h.

// half-life lookup, key: Cc1nnn(C)c1-c1cnc2c3ccc(C(C)(C)O)cc3n([C@H](c3ccccc3)C3CCOCC3)c2c1 [BMS-986158] 41.4

###

EXPERIMENT DESCRIPTION: Plasma pharmacokinetics after multiple doses (cycle 2, steady state), LC-MS/MS
Format: in vivo, human
CONDITIONS USED: human, plasma, oral, 2 mg, multiple dose, steady state; Schedule C (7 days on, 14 days off), 2.0 mg, n = 5; read-out: Tmax, median (range)
Procedure: At C1D1 in every dosing schedule cohort, a single dose was administered followed by 168 h (i.e., 7 days) of intensive PK sampling. Following cycle 1, the multiple-dose treatment schedules (described above) began in cycle 2. […] PK assessments were evaluated for BMS-986158 and its metabolite using plasma samples at regular intervals. Both the parent and metabolite samples were simultaneously analyzed using a validated liquid chromatography and tandem mass spectrometry assay. […]
MEASUREMENT KIND: Tmax (h)
Give the number; h is assumed, so skip it.

May I ask what Tmax has been recorded for Cc1nnn(C)c1-c1cnc2c3ccc(C(C)(C)O)cc3n([C@H](c3ccccc3)C3CCOCC3)c2c1 [BMS-986158] ? 1

###

EXPERIMENT DESCRIPTION: Plasma pharmacokinetics after single dose (C1D1), LC-MS/MS
Type: in vivo, human
CONDITIONS USED: human, plasma, oral, 3 mg, cohort Schedule C, 3.0 mg, n = 11, read-out: AUC(0–T), GM (%CV)
Description: At C1D1 in every dosing schedule cohort, a single dose was administered followed by 168 h (i.e., 7 days) of intensive PK sampling. Following cycle 1, the multiple-dose treatment schedules (described above) began in cycle 2. […] PK assessments were evaluated for BMS-986158 and its metabolite using plasma samples at regular intervals. Both the parent and metabolite samples were simultaneously analyzed using a validated liquid chromatography and tandem mass spectrometry assay. […]
MEASUREMENT KIND: AUC(0-t) (ng·h/mL)
State the answer as a number, implicitly in ng·h/mL.

Record request: AUC(0-t) value, item `Cc1nnn(C)c1-c1cnc2c3ccc(C(C)(C)O)cc3n([C@H](c3ccccc3)C3CCOCC3)c2c1` 11500
